Exercise: for every item that follows, state its recorded max response.
Test: qHTS Assay for Lipid Storage Modulators (AID 1519)
Details: Drosophila S3 cells, BODIPY lipid droplet/cell ratio, laser cytometry; measured here: cell count channel max response; cells loaded with oleic acid
Inconclusive results are not listed.
Form entry: enter the amount, then its unit.

Study these solved cases before continuing.
Can you look up the measured max response of Cl.Cl.Cl.Cl.Cl.Cl.N.N.N.N.NNNNN.NNNNN.O.O.[Ru].[Ru].[Ru] for me?
-27.5%

Can you look up the measured max response of Clc1ccc(COC(Cn2ccnc2)c2ccc(Cl)cc2Cl)c(Cl)c1 (configuration not stated) for me?
-9.24%

Can you look up the measured max response of CC(O)C(C)OC(=O)[C@@H]1C[C@@H]2c3cccc4c3c(cn4C(C)C)C[C@H]2N(C)C1 (some centres not stated) for me?
-4.58%

Can you look up the measured max response of CNCC/C=C\c1cccnc1 for me?
-7.59%

Can you look up the measured max response of C[C@@H](Cc1ccc(OCC(=O)O)cc1)NC[C@H](O)c1cccc(Cl)c1 for me?
11.5%

Can you look up the measured max response of C=C(C)[C@H]1CN[C@H](C(=O)O)[C@@H]1CC(=O)O for me?
-5.55%

Below are 3 compounds. Give each one its max response.
1. CCCN1C[C@H](C)N([C@H](c2ccc(C(=O)N(CC)CC)cc2)c2cccc(OC)c2)C[C@H]1C
2. CC[N+](CC)(CCCNC1=CC(=O)C(NCCC[N+](CC)(CC)Cc2ccccc2)=CC1=O)Cc1ccccc1
3. CN(C)Cc1c[nH]c2ccccc12

1: 26.5%; 2: -5.38%; 3: -14%

Below are 8 compounds. Give each one its max response.
1. N[C@@H](Cn1ccc(=O)n(Cc2ccc(C(=O)O)cc2)c1=O)C(=O)O
2. NC[C@H](CS(=O)(=O)O)c1ccc(Cl)cc1
3. C[N+](C)(C)CC(=O)[O-]
4. CCNC(=O)[C@@H]1O[C@@H](n2cnc3c(N)ncnc32)[C@H](O)[C@H]1O
5. C[C@H](N)Cc1c[nH]c2ccc(O)cc12
6. CCN(CC)CCO[C@H]1CC[C@@]2(C)C(=CC[C@@H]3[C@H]2CC[C@]2(C)C(=O)CC[C@H]32)C1
7. NC[C@H](CC(=O)O)c1ccc(Cl)cc1
8. CC(C)(O)[C@@H]1[C@H]2OC(=O)[C@@H]1[C@]1(O)C[C@H]3O[C@]34C(=O)O[C@H]2[C@@]14C (tested in a mixture with another compound)

["-1.53%", "7.7%", "0.576%", "-12.5%", "20.6%", "16%", "12.8%", "-8.87%"]

Below are 4 compounds. Give each one its max response.
1. CC(C)n1cnc2c(C(=O)N[C@H]3CN4CCC3CC4)cc(Cl)cc21
2. O=C(O)/C=C\CO
3. CNCCc1cnc[nH]1
4. CC(C)(c1ccc(OC[C@@H]2CO2)cc1)c1ccc(OC[C@H]2CO2)cc1

1. 14.7%
2. -10.2%
3. -7.35%
4. 20.1%

Can you look up the measured max response of COc1ccc(-n2nc(C(F)(F)F)cc2-c2ccc(Cl)cc2)cc1 for me?
-38.3%

The reported numbers originate from PubChem BioAssay (NCATS).
